- assay: Partition coefficient (logP)
- Assay type: physicochemical
- reported_conditions: octanol/water
Quick list: logP per entry.
measured_quantity: logP

>>> reported_measurement("CN(c1ccccc1)S(=O)(=O)N1CCOC1=O")
0.56
>>> reported_measurement("O=C1OCCN1S(=O)(=O)Nc1ccccc1")
0.65
>>> reported_measurement("O=C1OCCN1S(=O)(=O)Nc1ccc([N+](=O)[O-])cc1")
0.55
>>> reported_measurement("Cc1ccc(NS(=O)(=O)N2CCOC2=O)cc1")
1.12
>>> reported_measurement("COc1ccc(NS(=O)(=O)N2CCOC2=O)cc1")
0.77
>>> reported_measurement("O=C1OCCN1S(=O)(=O)Nc1ccc(Cl)cc1")
1.26

###

- assay: Relative hydrophobicity enhancement value obtained via beta-cyclodextrin complexation
- Format: ADME
Rule: delta Log P below 0.9 gives YES, anything at or above gives NO.

>>> assigned_class("COc1ccc(NS(=O)(=O)N2CCOC2=O)cc1")
"NO"
>>> assigned_class("O=C1OCCN1S(=O)(=O)Nc1ccc(Cl)cc1")
"YES"
>>> assigned_class("CN(c1ccccc1)S(=O)(=O)N1CCOC1=O")
"YES"
>>> assigned_class("Cc1ccc(NS(=O)(=O)N2CCOC2=O)cc1")
"NO"
>>> assigned_class("O=C1OCCN1S(=O)(=O)Nc1ccccc1")
"YES"

###

- assay: Partition coefficient (logP) (beta-cyclodextrin complex)
- Format: physicochemical
- reported_conditions: octanol/water
measured_quantity: logP

>>> reported_measurement("COc1ccc(NS(=O)(=O)N2CCOC2=O)cc1")
-0.17
>>> reported_measurement("O=C1OCCN1S(=O)(=O)Nc1ccc(Cl)cc1")
0.46
>>> reported_measurement("O=C1OCCN1S(=O)(=O)Nc1ccccc1")
-0.2
>>> reported_measurement("CN(c1ccccc1)S(=O)(=O)N1CCOC1=O")
-0.22
>>> reported_measurement("O=C1OCCN1S(=O)(=O)Nc1ccc([N+](=O)[O-])cc1")
-0.35
>>> reported_measurement("Cc1ccc(NS(=O)(=O)N2CCOC2=O)cc1")
0.1
